- Tested on: 293T cells
- method: Fluorescent detection of Fluc-mRNA (cell transfection efficiency of LNP formulations)
- Type: cell-based
- settings: RLU of named substance / RLU of SM-102
The reader will find reported Ratio relative to SM-102 values listed item by item below.
Respond with the number and no other words.

Solved entries:
>  <compound>
CCCCCCC(CCCCCC)CCOC(=O)CCCCCN(CCO)CCCCCC(=O)OCCSCCCC [YK-112]

>  <study system>
293T cells

>  <Ratio relative to SM-102>
0.0013

$$$$
>  <compound>
CCCCCCCCCCOC(=O)CCCN(CCO)CCCCCCOC(=O)CC(CCCCCC)CCCCCC [YK-105]

>  <study system>
293T cells

>  <Ratio relative to SM-102>
1.04

$$$$
>  <compound>
CCCCCCCCCCOC(=O)CCCN(CCCCCC(=O)OCC(CCCCCCCC)CCCCCCCC)CCOCCOCCO [YK-122]

>  <study system>
293T cells

>  <Ratio relative to SM-102>
0.92

$$$$
>  <compound>
CCCCCCCCC(CCCCCCCC)COC(=O)CCCCCN(CCO)CCCCCC(=O)OCCSCCCC [YK-113]

>  <study system>
293T cells

>  <Ratio relative to SM-102>
0.10

$$$$
>  <compound>
CCCCCCCCCCOC(=O)CCCN(CCCCCC(=O)OCCC(CCCCCC)CCCCCC)CCC(C)O (stereo not drawn) [YK-118]

>  <study system>
293T cells

>  <Ratio relative to SM-102>
0.0139

$$$$

Kindly note the recorded Ratio relative to SM-102 for CCCCCCCCCCOC(=O)CCCN(CCCO)CCCCCC(=O)OCCC(CCCCCC)CCCCCC [YK-102] , which is 0.95

---

- Tested on: 293T cells
- method: Fluorescent detection of Fluc-mRNA (cell transfection efficiency of LNP formulations)
- Format: cell-based
- settings: RLU of named substance / RLU of SM-102
Assign satisfied whenever Ratio relative to SM-102 does not fall below 0.5; assign not satisfied whenever it does.

>  <compound>
CCCCCCCCCCOC(=O)CCCN(CCCCCC(=O)OCCC(CCCCCC)CCCCCC)CCOCCOCCO

>  <discrete label>
not satisfied

$$$$
>  <compound>
CCCCCCCCCCOC(=O)CCCN(CCCCCC(=O)OCCC(CCCCCC)CCCCCC)C1CCCC1O (centres unmarked)

>  <discrete label>
satisfied

$$$$
>  <compound>
CCCCCCCCCCOC(=O)CCCN(CCCCCC(=O)OCCC(CCCCCC)CCCCCC)C[C@H](C)O

>  <discrete label>
not satisfied

$$$$
>  <compound>
CCCCCCCCCC(=O)OCCCCN(CCO)CCCCCC(=O)OCC(CCCCCCCC)CCCCCCCC

>  <discrete label>
satisfied

$$$$
>  <compound>
CCCCCCCCCCCOC(=O)CCCN(CCO)CCCCCCC(=O)OCCC(CCCCCC)CCCCCC

>  <discrete label>
satisfied

$$$$

Problem: Entry "CCCCCCCCCCOC(=O)CCCN(CCCCCC(=O)OCC(CCCCCCCC)CCCCCCCC)CCOC(=O)CCCN(C)C" : is its Ratio relative to SM-102 no less than 0.5?
Solution: not satisfied

Problem: Entry CCCCCCCCCCOC(=O)CCCN(CCO)CCCCCC(=O)OCC(CCCCCCCC)CCCCCCCC [YK-009, reference compound] : is its Ratio relative to SM-102 no less than 0.5?
Solution: satisfied

Problem: Entry CCCCCCCCCCOC(=O)CCCN(CCCCCC(=O)OCCC(CCCCCC)CCCCCC)CC(O)CO (centres unmarked) : is its Ratio relative to SM-102 no less than 0.5?
Solution: satisfied
